Attribute: melting point
reported property: melting point

INSERT INTO assay_data (molecule, reported_property, result) VALUES
  ('CC1(C)COC(CCC(c2cc(F)ccc2F)S(=O)(=O)c2ccc(Cl)cc2)OC1 (stereo not shown)', 'melting point', '69 to 71 °C'),
  ('Fc1ccc(F)c(C(Sc2ccc(Cl)cc2)c2ccncc2Cl)c1 (stereo not shown)', 'melting point', '70 to 72 °C'),
  ('O=S(=O)(c1ccc(Cl)cc1)C(CCc1ccccc1)c1cc(F)ccc1F (stereo not shown)', 'melting point', '111 to 113 °C'),
  ('O=S(=O)(c1ccc(Cl)cc1)C1(c2nnn(Cc3ccccc3)n2)CCCCC1', 'melting point', '133 to 134 °C'),
  ('Cc1ncsc1CCC(c1cc(F)ccc1F)S(=O)(=O)c1ccc(Cl)cc1 (stereo not shown)', 'melting point', '183 to 184 °C'),
  ('CCCC(O)C(c1cc(F)ccc1F)S(=O)(=O)c1ccc(Cl)cc1 (stereo not shown) [Example 11]', 'melting point', '76.5 to 78 °C'),
  ('O=S(=O)(c1ccc(Cl)cc1)C(c1cc(F)ccc1F)C(O)CCCCO (stereo not shown) [Example 236]', 'melting point', '105 to 107 °C'),
  ('CN(C)CCC(c1ccncc1)S(=O)(=O)c1ccc(Cl)cc1 (stereo not shown)', 'melting point', '91 to 92 °C'),
  ('O=S(=O)(c1ccc(Cl)cc1)C(Cc1ccc(F)cc1)c1cc(F)ccc1F (stereo not shown)', 'melting point', '151 to 153 °C'),
  ('CS(=O)(=O)CCCCC(Cc1ccccc1)S(=O)(=O)c1ccc(Cl)cc1 (stereo not shown)', 'melting point', '68 to 70 °C'),
  ('C=COCCCCC(c1cc(F)ccc1F)S(=O)(=O)c1ccc(Cl)cc1 (stereo not shown)', 'melting point', '54 to 56 °C'),
  ('CCCCCCC(c1cc(F)ccc1F)S(=O)(=O)c1ccc(Cl)cc1 (stereo not shown)', 'melting point', '77 to 78 °C'),
  ('COC(=O)/C=C/c1ccc(C(c2cc(F)ccc2F)S(=O)(=O)c2ccc(Cl)cc2)nc1 (stereo not shown)', 'melting point', '145 to 146 °C');

---

Attribute: melting point
reported property: melting point

INSERT INTO assay_data (compound, result) VALUES
  ('COc1ccc(CCC(c2cc(F)ccc2F)S(=O)(=O)c2ccc(Cl)cc2)cc1 (stereo not drawn)', '118 to 120 °C'),
  ('O=S(=O)(c1ccc(Cl)cc1)C(Cc1ccccc1)c1cc(F)ccc1F (stereo not drawn)', '160 to 161 °C'),
  ('COc1ccc(C(CCCCS(C)(=O)=O)S(=O)(=O)c2ccc(Cl)cc2)cc1 (stereo not drawn)', '136 to 138 °C');

---

Attribute: melting point
reported property: melting point

INSERT INTO results (molecule, result) VALUES
  ('O=S(=O)(Cc1ccc(C(c2cc(F)ccc2F)S(=O)(=O)c2ccc(Cl)cc2)nc1)c1ccc(Cl)cc1 (stereo not drawn)', '186 to 187 °C'),
  ('O=C(O)CCC(c1cc(F)ccc1F)S(=O)(=O)c1ccc(Cl)cc1 (stereo not drawn)', '157 to 158 °C'),
  ('Cl.O=S(=O)(c1ccc(Cl)cc1)C(CCNCCO)c1cc(F)ccc1F (stereo not drawn)', '216 to 220 °C'),
  ('Cc1cccc(CCC(c2cc(F)ccc2F)S(=O)(=O)c2ccc(Cl)cc2)c1 (stereo not drawn)', '87 to 88 °C'),
  ('CS(=O)(=O)CCCCC(c1ccc(F)cc1Cl)S(=O)(=O)c1ccc(Cl)cc1 (stereo not drawn)', '124 to 125 °C'),
  ('CC(=O)N1CCC(c2cc(F)ccc2F)(S(=O)(=O)c2ccc(Cl)cc2)CC1', '159 to 160 °C'),
  ('C=COCCOCCC(c1cc(F)ccc1F)S(=O)(=O)c1ccc(Cl)cc1 (stereo not drawn)', '55 to 56 °C'),
  ('O=S(=O)(c1ccc(Cl)cc1)C(CCN1CCOCC1)c1cc(F)ccc1F (stereo not drawn)', '149 to 151 °C'),
  ('O=S(=O)(c1ccc(Cl)cc1)C(c1nccs1)c1cc(F)ccc1F (stereo not drawn)', '163 to 164 °C'),
  ('Cl.O=S(=O)(c1ccc(Cl)cc1)C(CCCCN1CCCC1)c1cc(F)ccc1F (stereo not drawn)', '167 to 170.5 °C'),
  ('O=S(=O)(c1ccc(Cl)cc1)C(c1ccncc1)c1cc(F)ccc1F (stereo not drawn)', '126 to 127 °C'),
  ('O=C(O)CCCC(c1cc(F)ccc1F)S(=O)(=O)c1ccc(Cl)cc1 (stereo not drawn)', '151 to 152 °C');
